- Measurement Conditions: in toluene, 303.15 K

Sample Smiles	solubility (mole fraction)
O=[N+]([O-])c1cn[nH]c1[N+](=O)[O-]	0.0024

----------
- Measurement Conditions: in chlorobenzene, 298.15 K

Sample Smiles	solubility (mole fraction)
O=[N+]([O-])c1cn[nH]c1[N+](=O)[O-]	0.0012

----------
- Measurement Conditions: in n-butanol, 323.15 K

Sample Smiles	solubility (mole fraction)
O=[N+]([O-])c1cn[nH]c1[N+](=O)[O-]	0.489

----------
- Measurement Conditions: in benzene, 333.15 K

Sample Smiles	solubility (mole fraction)
O=[N+]([O-])c1cn[nH]c1[N+](=O)[O-]	0.00742

----------
- Measurement Conditions: in isopropanol, 323.15 K
Measurement Label: solubility (mole fraction)

Sample Smiles	Measurement Label	Observed Result
O=[N+]([O-])c1cn[nH]c1[N+](=O)[O-]	solubility (mole fraction)	0.547

All values here come from BigSolDB 2.1.
